# System: AABA1060 (clinical isolate of Acinetobacter baumannii)
# experimental details: MIC broth microdilution, AABA1060
# Assay type: cell-based
# study conditions: Acinetobacter baumannii, read-out: MIC AABA1060
Listed below: MIC values for each entry.
quantity measured: MIC

compound	obs value
CCC#CC#Cc1ccc(C(=O)N[C@H](C(=O)NO)C(C)(C)N)cc1 [Example 91-1]	< 2 µg/mL
C[C@@H](N)[C@H](NC(=O)c1ccc(/C=C/C#Cc2ccc(CN3CCOCC3)cc2)cc1)C(=O)NO [Example 110-3]	2 to 16 µg/mL
NC[C@H](NC(=O)c1ccc(C#Cc2ccc(CNC(=O)CCC(=O)O)cc2)cc1)C(=O)NO [Example 137-11]	> 64 µg/mL
CC(C)(N)[C@H](NC(=O)c1ccc(C#CC#Cc2cncs2)cc1)C(=O)NO [Example 88-16]	< 2 µg/mL
C[C@@H](O)[C@H](NC(=O)c1ccc(/C=C/C#Cc2ccc(CNC3CC3)cc2)cc1)C(=O)NO [Example 113-3]	2 to 16 µg/mL
CC(C)(O)[C@H](NC(=O)c1ccc(C#C/C=C/c2ccc(F)cc2)cc1)C(=O)NO [Example 106-7]	2 to 16 µg/mL
C[C@@H](NC(=O)CNC1CC1)[C@H](NC(=O)c1ccc(C#CC#Cc2ccccc2)cc1)C(=O)NO [Example 85-2]	16 to 64 µg/mL
CC(C)(O)[C@H](NC(=O)c1ccc(C#CC#Cc2cccnc2)cc1)C(=O)NO [Example 88-5]	< 2 µg/mL
O=C(N[C@H](C(=O)NO)C1CCS(=O)(=O)CC1)c1ccc(C#Cc2ccc(CN3CCOCC3)cc2)cc1 [Example 67-9]	> 64 µg/mL
C[C@@H](N)[C@H](NC(=O)c1ccc(C#Cc2ccc(CN3CCC(F)(F)C3)cc2)cc1)C(=O)NO [Example 118-3]	2 to 16 µg/mL
C[C@@H](N)[C@H](NC(=O)c1ccc(C#Cc2ccc(CS(C)(=O)=O)cc2)cc1)C(=O)NO [Example 120-2]	16 to 64 µg/mL
CC(C)(O)[C@H](NC(=O)c1ccc(C#CC#Cc2cncnc2)cc1)C(=O)NO [Example 89-7]	16 to 64 µg/mL
C[C@@H](N)[C@H](NC(=O)c1ccc(C#Cc2ccncc2)cc1)C(=O)NO [Example 133-8]	16 to 64 µg/mL
O=C(NC(C(=O)NO)C1(O)CC1)c1ccc(C#Cc2ccc(CN3CCOCC3)cc2)cc1 (stereo not shown) [Example 137-24]	2 to 16 µg/mL
C[C@@H](N)[C@H](NC(=O)c1ccc(C#CC#Cc2cnc(N)s2)cc1)C(=O)NO [Example 88-17]	2 to 16 µg/mL
C[C@@H](N)[C@H](NC(=O)c1ccc(C#CC#Cc2ccc(CNCC(F)F)cc2)cc1)C(=O)NO [Example 86-1]	2 to 16 µg/mL
C[C@@H](N)[C@H](NC(=O)c1ccc(C#Cc2ccc(CN3CCC(F)CC3)cc2)cc1)C(=O)NO [Example 115-1]	2 to 16 µg/mL
C[C@@H](N)[C@H](NC(=O)c1ccc(/C=C/C#Cc2ccccc2Cl)cc1)C(=O)NO [Example 114-5]	< 2 µg/mL
C[C@@H](O)[C@H](NC(=O)c1ccc(/C=C/C#Cc2ccc(F)cc2)cc1)C(=O)NO [Example 114-11]	2 to 16 µg/mL
C[C@@H](N)[C@H](NC(=O)c1ccc(C#C/C=C/c2ccc(F)cc2)cc1)C(=O)NO [Example 106-6]	2 to 16 µg/mL
C[C@@H](N)[C@H](NC(=O)c1ccc(C#CC#CC2CC2)cc1)C(=O)NO [Example 91-2]	< 2 µg/mL
C[C@@H](N)[C@H](NC(=O)c1ccc(C#Cc2ccc(CN(C)Cc3cccnc3)cc2)cc1)C(=O)NO [Example 115-5]	2 to 16 µg/mL
CC(C)(N)[C@H](NC(=O)c1ccc(C#CC#Cc2cccc(F)c2)cc1)C(=O)NO [Example 82-27]	2 to 16 µg/mL
CC(C)(N)[C@@H](NC(=O)c1ccc(C#Cc2ccc(CNC3CC3)cc2)cc1)C(=O)NO [Compound 121-2]	16 to 64 µg/mL
CC(C)(N)[C@H](NC(=O)c1ccc(/C=C/C#CC2CC2)cc1)C(=O)NO [Example 114-18]	< 2 µg/mL
C[C@@H](O)[C@H](NC(=O)c1ccc(C#C/C=C/c2ccc(CO)cc2)cc1)C(=O)NO [Example 101-1]	16 to 64 µg/mL
CC(=O)NC[C@H](NC(=O)c1ccc(C#C/C=C/c2ccc(CN3CCOCC3)cc2)cc1)C(=O)NO [Example 98-3]	16 to 64 µg/mL
CC(C)(N)[C@H](NC(=O)c1ccc(C#CC#CCC2CCCC2)cc1)C(=O)NO [Example 91-23]	2 to 16 µg/mL
O=C(N[C@H](C(=O)NO)c1ccccc1)c1ccc(C#Cc2ccc(CN3CCOCC3)cc2)cc1 [Example 66-5]	2 to 16 µg/mL
CC(C)C#C/C=C/c1ccc(C(=O)N[C@H](C(=O)NO)C(C)(C)N)cc1 [Example 114-19]	< 2 µg/mL
CCOCc1ccc(C#Cc2ccc(C(=O)NC(C(=O)NO)C(C)(C)N)cc2)cc1 (stereo not shown) [Compound 126-2]	< 2 µg/mL
